Origin of values: the RNAGym collection of RNA variant scans (doi:10.7554/elife.90254)

Entries annotated with measured self-cleavage
B1: OR4K15 (parent)
chain: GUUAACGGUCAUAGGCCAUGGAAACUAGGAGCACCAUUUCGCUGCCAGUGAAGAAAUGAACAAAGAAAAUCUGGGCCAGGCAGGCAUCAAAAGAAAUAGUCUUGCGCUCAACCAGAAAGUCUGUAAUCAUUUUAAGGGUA

- Variants of: B1
- testDescription: self-cleavage, relative activity (ratio to wild type); higher = more cleavage; in vitro, sequencing; the parent is a self-cleaving ribozyme
Format: numeric value only, no unit, no commentary.

>  <chainSequence>
GUUAACGGUCAUAGGCCAUGGAAACUAGGAGCACCAUCUCGCUGCCAGUGAAGAAAUGAACAAAGAAAAUCUGGGCCAGGCAGGCAUCAAAAGAAAUAGUCUUGCGCUCAACCAGAAAGUCUGUAAUCAUUAUAAGGGUA [U38C U132A]

>  <endpointValue>
1.77

$$$$
>  <chainSequence>
GUUAACGGUCAUAGGCCAUGGAAACUAGGAGCACCAUUUCGCUGCCAGUGAAGAAAUGAGCAAAGAAAAUCUGGGCCAGGCAGGCAUCAAAAGAAAUAGUCUUGCGCUCAAACAGAAAGUCUGUAAUCAUUUUAAGGGUA [A60G C112A]

>  <endpointValue>
0.02

$$$$
>  <chainSequence>
GUUAACGGUCAUAGGCCAUGGAAACUAGGAGCACCAUUUCGCUGCCAGUGUAGAAAUGAACAAAGAAAAUCUGGGUCAGGCAGGCAUCAAAAGAAAUAGUCUUGCGCUCAACCAGAAAGUCUGUAAUCAUUUUAAGGGUA [A51U C76U]

>  <endpointValue>
0.33

$$$$
>  <chainSequence>
GUUAACGGUCAUAGGCCAUGGAACCUAGGAGCACCAUUUCGCUGCCAGUGAAGAAAUGAACAAAGAAAAUCUGGGCCAGGCAGGCAUCAAGAGAAAUAGUCUUGCGCUCAACCAGAAAGUCUGUAAUCAUUUUAAGGGUA [A24C A91G]

>  <endpointValue>
1.24

$$$$
>  <chainSequence>
GUUAACGGUCAUAGGCCAUGGAAACUAGGAGCACCAUUUCGCUGCCAGUGAAGAAAUGAACAAAGAAAAUCUGGGCCAGGCAGGCAUCAGAAGAAAUAGCCUUGCGCUCAACCAGAAAGUCUGUAAUCAUUUUAAGGGUA [A90G U100C]

>  <endpointValue>
2.32

$$$$

Identify the reported self-cleavage for the following entry. GUUAACGGUCAUAGGCCAUGGAAACUAGGAGCACCAUUUCGCUGCCAGUGAAGAAAUGAACAAAGAAAAUCUGGGCCAGGCAGGCAUCAAAAGAAAUAGUCUUGCGCUCAACCAGGAAGUCUGUAAUCAAUUUAAGGGUA [A116G U130A]
0.51

Identify the reported self-cleavage for the following entry. GUUAACGGUCACAGGCCAUGGAAACUAGGAGCACCAUUUCGCUACCAGUGAAGAAAUGAACAAAGAAAAUCUGGGCCAGGCAGGCAUCAAAAGAAAUAGUCUUGCGCUCAACCAGAAAGUCUGUAAUCAUUUUAAGGGUA [U12C G44A]
2.15

Identify the reported self-cleavage for the following entry. GUUAACGGUCAUAGGCCAUGGAAACUAGGAGCACCAUUUCGCUGCCGGUGAAGUAAUGAACAAAGAAAAUCUGGGCCAGGCAGGCAUCAAAAGAAAUAGUCUUGCGCUCAACCAGAAAGUCUGUAAUCAUUUUAAGGGUA [A47G A54U]
0.97

Identify the reported self-cleavage for the following entry. GUUAACGGUCAUAGGCCAUGGAAACUAGGAGCACCAUUUCGCUGCCAGUGAAGAAAUGAACAAAGAAAAUCUGGGCCAGGCAGGCAUCAAAAGAAAUAGUCUUGCGCUCAACCAGAAAGUCUGUAAUCAUUUGAAGGGUA [U133G]
0.38

Identify the reported self-cleavage for the following entry. GUUAACGGUCAUAGGCCAUGGAAACUAGGAGCACCAUUUCGCUGCCAGUGAAGAAAUGAACAAAGAAAAUCUGGGCCAGGCAGGCAUCAAAAGAAAUAGUCCUGCGCUCAACCAGAAAGUCUGUAAUUAUUUUAAGGGUA [U102C C128U]
1.62

Identify the reported self-cleavage for the following entry. GUUAACGGUCAUAGGCCAUGGAAACUAGGAUCACCAUUUCGCUGCCAGUGAAGAAAUGAACAAAGAAAAUCUGGGCCAGGCAGGCAUCAAAGGAAAUAGUCUUGCGCUCAACCAGAAAGUCUGUAAUCAUUUUAAGGGUA [G31U A92G]
1.27

Identify the reported self-cleavage for the following entry. GUUAACGGUCAUAGGCCAUGGAAACUAGGAGCACCAUUUCGCUGCCAGUGAAGAAAUGAACAAAGAAAAUCUGGGCCAGGCAGGCAUCAAGAGAAAUAGCCUUGCGCUCAACCAGAAAGUCUGUAAUCAUUUUAAGGGUA [A91G U100C]
2.19

Identify the reported self-cleavage for the following entry. GUUAACGGUCAUAGGCCAUGGAAACUAGGAGCACCAUUUCGCUGCCAGUGAAGAAAUGAACAAAGAAAAUCUGGGCCAGGCAGGCAUCAAAAGAAAUAGUCAUGCGCUCAACCAGAAGGUCUGUAAUCAUUUUAAGGGUA [U102A A118G]
0.84

Identify the reported self-cleavage for the following entry. GUUAACGGUCAUAGGCCAUGGAAACUAGGAGCACCAUUUCGCUGCCAGUGAGGAAAUGAACAAAGAAAAUCUGGGCCAGGCAGGCAUCAAAAGAAAUAGUCUUGCGCUCAACCAGAAAGUCUGUAAUCAUUUUAAGGGAA [A52G U139A]
1.5

Identify the reported self-cleavage for the following entry. GUUAACGGCCAUAGGCCAUGGAAACUAGGAGCACCAUUUCGCUGCCAGUGAAGAAAUGAACAAAGAAAAUCAGGGCCAGGCAGGCAUCAAAAGAAAUAGUCUUGCGCUCAACCAGAAAGUCUGUAAUCAUUUUAAGGGUA [U9C U72A]
0.43

Identify the reported self-cleavage for the following entry. GUUGACGGUCAUAGGCCAUGGAAACUAGGAGCACCAUUUCGCUGCCAGUGAAGAAAUGAACAAAGAAAAUCUGGGCCAGGCAGGCAUCAAAAGAAAUAGUCUUGCGCUCAACCAGAAAGUCUGCAAUCAUUUUAAGGGUA [A4G U124C]
0.5

Identify the reported self-cleavage for the following entry. GUUAACGGUCAUAGGCCAUGGGAACUAGGAGCACCUUUUCGCUGCCAGUGAAGAAAUGAACAAAGAAAAUCUGGGCCAGGCAGGCAUCAAAAGAAAUAGUCUUGCGCUCAACCAGAAAGUCUGUAAUCAUUUUAAGGGUA [A22G A36U]
0.87

Identify the reported self-cleavage for the following entry. GUUAACGGUCAUAGGCCAUGGAGACUAGGAGCACCAUUUCGCUGCCAGUGAAGAGAUGAACAAAGAAAAUCUGGGCCAGGCAGGCAUCAAAAGAAAUAGUCUUGCGCUCAACCAGAAAGUCUGUAAUCAUUUUAAGGGUA [A23G A55G]
1.27
